Assignment: determine reported protein stability index for the given sequences.
Test: protein stability index of a GFP-peptide fusion (yeast GPS) (PSI 1-4); higher = more stable; sorted into four equal gates, so the index is relative within each strain
Settings: pdr5∆
Give bare numbers.

Some sequences with recorded protein stability index:
1. EFEIPVSFNGFKLPKKF [BRR2]: 2.94
2. TNAKIPQFDSTQPKSSS [SSN3]: 3.01
3. AYIKLLDQTKDTRITHL [SNF2]: 3.03
4. LSRKPSDNKKRSGSNAA [RPC82]: 3.31
5. EHKPVSPDKIGTFTADY [SSN2]: 3.15

Okay, here is my list. What is protein stability index for each of these?
1. FLRTQFLKLYVLVKWTR [RGR1]
2. ALERYDEAEGRFEVINN [SMC1]
3. LDPSLRAPIYHSKFRSS [YML031W/NDC1]
4. LLALRERRMQVTAEDFK [RPT2]
5. LQPFWFRVNNASINTSA [ECM29]

1: 1.95; 2: 1.12; 3: 2.34; 4: 2.8; 5: 1.49

###

Assignment: determine reported protein stability index for the given sequences.
Test: protein stability index of a GFP-peptide fusion (yeast GPS) (PSI 1-4); higher = more stable; sorted into four equal gates, so the index is relative within each strain
Settings: ubr1∆
Answers are plain numbers.

1. VDPEQEAHNKALNQFKR [RPT4]: 3.02

Okay, here is my list. What is protein stability index for each of these?
1. LSDYIPGPYPNEQAARA [CYT1]
2. QVSNFAPQVYIITKNEN [GAL11]
3. RSPVFALNMLPSEILHL [GRR1]

1: 2.39; 2: 1.67; 3: 2.19

###

Experiment: protein stability index of a GFP-peptide fusion (yeast GPS) (PSI 1-4); higher = more stable; sorted into four equal gates, so the index is relative within each strain
Conditions: san1∆
Assignment: determine reported protein stability index for the given sequences.
Give bare numbers.

Some sequences with recorded protein stability index:
1) QLKWAQNTIDDTEMKMK [YIL149C/MLP2]: 2.71
2) KEKIKNNRQLPYLVANV [RPT5]: 3.11
3) LESADKQLEKRDYQRIN [POP4]: 2.64
4) DLFGDSNKSNSTNESNK [SSN2]: 3.07

Okay, here is my list. What is protein stability index for each of these?
1. VVLSFSGLNADSRILIE [PRE6]
2. VSKKWAAAGVCEKWAAS [RPL14B]
3. LDRELLKPSMSVALHRH [RPT3]
4. SMRIQILRRQAILRQQQ [GAL11]
5. MTLLTDSLRKLYVDSES [MTW1]
6. TKLKNAVQNESVSSPIE [QCR2]
7. SNADTNQNSDMKKKLEL [SRB8]

1: 3.19; 2: 2.73; 3: 3.07; 4: 3.17; 5: 1.65; 6: 3.25; 7: 2.75

Okay, here is my list. What is protein stability index for each of these?
1. HDISKTETSNEDEDEDD [SNU114]
2. GFIFTSMILEAISTDKI [RRI2]

1: 2.98; 2: 1.26

###

Test: protein stability index of a GFP-peptide fusion (yeast GPS) (PSI 1-4); higher = more stable; sorted into four equal gates, so the index is relative within each strain
Conditions: ubr1∆
observable: protein stability index

1) SEKKDTDGADENVQIGE [SRB4]: 3.06

Okay, here is my list. What is protein stability index for each of these?
1. NENDLKTYNCLHEKYLT [SMC1]
2. ANNNGSNLQRAQNVPMN [GAL11]
3. NNFIVERVQSDENKDDE [SRP68]
4. NLFSSTGFKGLLIELQA [SRB2]
5. VTFSPTGRLFQVEYALE [PRE5]
6. FSSSVSLSYMAFPNASK [RRP40]

[3.02, 3.09, 3.04, 2.94, 2.79, 1.72]

Okay, here is my list. What is protein stability index for each of these?
1. MRDKSFGRTLASVTKEI [RPL12A]
2. MAQNKTHIPQTNLKNHP [YLR018C/POM34]
3. AQAWINLGEYYAQIGDK [RPN7]

1. 2.81
2. 2.85
3. 2.76

###

Assay: protein stability index of a GFP-peptide fusion (yeast GPS) (PSI 1-4); higher = more stable; sorted into four equal gates, so the index is relative within each strain
Conditions: pdr5∆
observable: protein stability index
Give bare numbers.

Some sequences with recorded protein stability index:
1. FKRDLLREKEDKKNSSD [YJL039C/NUP192]: 2.92
2. LKPEIEKLTSKSLDEQL [LRP1]: 3.26
3. IQEANSVDMSALKDPQT [RIP1]: 3.43
4. EPFFLVTKITDMLLHKY [SRB8]: 2.52
5. FSFGKSDAAKEPPGSNT [YOR098C/NUP1]: 3.58

Okay, here is my list. What is protein stability index for each of these?
1. IYVHVRRSTPFSKIAEY [ESC2]
2. AGVEDVYTQSNGKTRTL [RPS2]
3. AAAEIADEPVKASLLLH [FAS2]
4. TGEWFSSYEEFLERFDF [ITC1]
5. PSDWQRNSFIRDMIMKR [ITC1]

2.33
3.21
3.01
1.99
3.03

Okay, here is my list. What is protein stability index for each of these?
1. KRGEVVKIIRKSETSGR [RPB5]
2. FTNPSVDIQIINQYQLL [SWI1]
3. SDLINKDLVKNNVSFNA [FAS1]
4. FKSSVEMGKTDKSTKTA [YOR098C/NUP1]
5. KTEPVGTGLQSYLEERE [RPC53]
6. AVAASSTKTGTPSDLSE [POP1]

3.17
1.66
2.58
3.24
3.24
3.26

Okay, here is my list. What is protein stability index for each of these?
1. MDALTLMKCCHEAYSII [RRP45]
2. VRSLPKEEQPKQIIVTR [PRP8]
3. AEEVRNFALTTLIDLVK [ECM29]
4. QGLAMVEKYAPDVVRSL [RRP42]

[2.04, 2.09, 1.9, 2.47]

Okay, here is my list. What is protein stability index for each of these?
1. KNLERLRGEYNDLQSET [SMC4]
2. AAIRQPTRYVLIRNVGT [POP1]
3. SKSESDSQIVTPGELVT [RRP4]
4. MAQNKTHIPQTNLKNHP [YLR018C/POM34]
5. FVHSVKKFLRVRIFTKI [SRB4]
6. RELFVMAREHAPSIIFM [RPT6]
7. TNLQRNVDRLYKLNVRS [NUT2]

3.4
2.07
3.17
2.98
2.07
1.99
3.62

Okay, here is my list. What is protein stability index for each of these?
1. DTEMKMKSLLTELSNKE [YIL149C/MLP2]
2. LSKLEKALDRHEFFIAN [SRP68]
3. RDMIMKRNSDKVEYKIV [ITC1]

[3.44, 2.61, 1.83]

Okay, here is my list. What is protein stability index for each of these?
1. SPHYNSQKQTLIKKPLT [SSN3]
2. KFMTNSTAFVPTIEYVQ [ARP9]
3. QNNFHVLIDLLNWFRTT [RGR1]
4. EEKSNEVKTPKIPLFTF [SIR4]
5. GNYSHLMEKNRIRKLTG [REC8]
6. TDIKQFLELTRRADVKT [RPL38]
7. MSVSDNDQALIKVLLRQ [RET1]
8. KKAFTSYDRTLLIADSR [RPS16A]

[2.87, 2.65, 2.17, 2.94, 2.04, 3.29, 2.62, 2.48]

Okay, here is my list. What is protein stability index for each of these?
1. TRPLTLSHGSLEHVLLV [FAS1]
2. LSTSVGWKYEDVVAKLE [RPL16A]
3. ETLNDTIERSLIEEEVE [YCS4]

1. 2.72
2. 3.29
3. 3.43

Okay, here is my list. What is protein stability index for each of these?
1. NAPTFNPKYDTSNASMN [YAR002W/NUP60]
2. MQKPVPFVPVLDRRFEI [FAS1]
3. RFSPDEDFEHNNLSSMN [MCD1]
4. SPVSSVHTANFSERGSN [MED2]
5. SKNRIIVEADEKKGIVQ [RET1]
6. LTALGKEKEKEREEAEK [MED2]
7. FRLIDTGALINNLEPRQ [RPN11]

[3.08, 1.95, 3.35, 2.82, 1.47, 1.43, 3.18]

###

Assignment: determine reported protein stability index for the given sequences.
Experiment: protein stability index of a GFP-peptide fusion (yeast GPS) (PSI 1-4); higher = more stable; sorted into four equal gates, so the index is relative within each strain
Details: pdr5∆

Some sequences with recorded protein stability index:
1) RHIKSKHEDLSLEQRQE [RPN4]: 3.05
2) IDEKSQFVETIVSKSIE [RPN2]: 2.19
3) EEVQQAQTEIKLFNKWS [RPS5]: 3.21

Okay, here is my list. What is protein stability index for each of these?
1. SCAIHARIVRVRSREDR [RPS26A]
2. TFTQLVSSSLYERRFGP [PUP3]
3. FNGIENQSAYEWNGKSF [ISW2]
4. VKKLEIQQHARYDCSFC [RPL43A]
5. RLQFAQGSVRRLTVSAR [QCR2]
6. VRIYSGLLKRGDTVRIL [SNU114]

1: 1.39; 2: 2.94; 3: 3.25; 4: 2.87; 5: 1.39; 6: 2.92
